Experiment: Evaluated for cytotoxicity under aerobic conditions against UV4 cells using microassay
Format: cell-based
Settings: Cricetulus griseus
For each entry below, report its pIC50 value.
// scale note: pIC50 = -log10(conc_M); give the bare number

Output pIC50 of `CS(=O)(=O)OCCN(CCOS(C)(=O)=O)c1ccc([N+](=O)[O-])cc1` 5.86

Output pIC50 of `CS(=O)(=O)OCCN(CCOS(C)(=O)=O)c1ccccc1` 6.23

src = ChEMBL document CHEMBL1124922
